Data provenance: ChEMBL document CHEMBL1142065

- System: Pseudomonas aeruginosa
- Assay remarks: Antibacterial activity against Pseudomonas aeruginosa
- Assay type: functional
# Lookup of reported MIC50 keyed by entry
Give the value, in units of µg/mL, as a plain number.

The examples below pair each entry with its known result.
CC(C)(O/N=C(\C(=O)N[C@@H]1C(=O)N2C(C(=O)[O-])=C(C[n+]3ccccc3)CS[C@H]12)c1csc(N)n1)C(=O)O [CEFTAZIDIME]; 2
C[C@@H](O)[C@H]1C(=O)N2C(C(=O)O)=C(SCCNC=N)C[C@H]12 [IMIPENEM ANHYDROUS]; 2
O=C(O)c1cn(C2CC2)c2cc(N3CCNCC3)c(F)cc2c1=O [CIPROFLOXACIN]; 0.25

Now for the molecule whose MIC50 we want.
(Q) Which MIC50 is reported for this molecule? Cn1c(N)c(NC(=O)NCCN)c[n+]1CC1=C(C(=O)O)N2C(=O)[C@@H](NC(=O)/C(=N\OC(C)(C)C(=O)[O-])c3nsc(N)n3)[C@H]2SC1 [CEFTOLOZANE]
(A) 0.5

* * *

- System: Pseudomonas aeruginosa
- Assay remarks: Antibacterial activity against ceftazidime-resistant Pseudomonas aeruginosa
- Assay type: functional
Recorded endpoint: MIC50 (µg/mL)
Just the number please, in µg/mL, no unit attached.

Cn1c(N)c(NC(=O)NCCN)c[n+]1CC1=C(C(=O)O)N2C(=O)[C@@H](NC(=O)/C(=N\OC(C)(C)C(=O)[O-])c3nsc(N)n3)[C@H]2SC1 [CEFTOLOZANE]; 2

(Q) Returns the measured MIC50 for the input compound. Input: CC(C)(O/N=C(\C(=O)N[C@@H]1C(=O)N2C(C(=O)[O-])=C(C[n+]3ccccc3)CS[C@H]12)c1csc(N)n1)C(=O)O [CEFTAZIDIME]
(A) 64

(Q) Bench note: what MIC50 did O=C(O)c1cn(C2CC2)c2cc(N3CCNCC3)c(F)cc2c1=O [CIPROFLOXACIN] show?
(A) 2

(Q) Given the compound C[C@@H](O)[C@H]1C(=O)N2C(C(=O)O)=C(SCCNC=N)C[C@H]12 [IMIPENEM ANHYDROUS] , what is its reported MIC50?
(A) 16
